Biological target: Cystic fibrosis transmembrane conductance regulator (Homo sapiens, UniProt P13569, F508DEL)
Sequence (P13569 as listed by the source): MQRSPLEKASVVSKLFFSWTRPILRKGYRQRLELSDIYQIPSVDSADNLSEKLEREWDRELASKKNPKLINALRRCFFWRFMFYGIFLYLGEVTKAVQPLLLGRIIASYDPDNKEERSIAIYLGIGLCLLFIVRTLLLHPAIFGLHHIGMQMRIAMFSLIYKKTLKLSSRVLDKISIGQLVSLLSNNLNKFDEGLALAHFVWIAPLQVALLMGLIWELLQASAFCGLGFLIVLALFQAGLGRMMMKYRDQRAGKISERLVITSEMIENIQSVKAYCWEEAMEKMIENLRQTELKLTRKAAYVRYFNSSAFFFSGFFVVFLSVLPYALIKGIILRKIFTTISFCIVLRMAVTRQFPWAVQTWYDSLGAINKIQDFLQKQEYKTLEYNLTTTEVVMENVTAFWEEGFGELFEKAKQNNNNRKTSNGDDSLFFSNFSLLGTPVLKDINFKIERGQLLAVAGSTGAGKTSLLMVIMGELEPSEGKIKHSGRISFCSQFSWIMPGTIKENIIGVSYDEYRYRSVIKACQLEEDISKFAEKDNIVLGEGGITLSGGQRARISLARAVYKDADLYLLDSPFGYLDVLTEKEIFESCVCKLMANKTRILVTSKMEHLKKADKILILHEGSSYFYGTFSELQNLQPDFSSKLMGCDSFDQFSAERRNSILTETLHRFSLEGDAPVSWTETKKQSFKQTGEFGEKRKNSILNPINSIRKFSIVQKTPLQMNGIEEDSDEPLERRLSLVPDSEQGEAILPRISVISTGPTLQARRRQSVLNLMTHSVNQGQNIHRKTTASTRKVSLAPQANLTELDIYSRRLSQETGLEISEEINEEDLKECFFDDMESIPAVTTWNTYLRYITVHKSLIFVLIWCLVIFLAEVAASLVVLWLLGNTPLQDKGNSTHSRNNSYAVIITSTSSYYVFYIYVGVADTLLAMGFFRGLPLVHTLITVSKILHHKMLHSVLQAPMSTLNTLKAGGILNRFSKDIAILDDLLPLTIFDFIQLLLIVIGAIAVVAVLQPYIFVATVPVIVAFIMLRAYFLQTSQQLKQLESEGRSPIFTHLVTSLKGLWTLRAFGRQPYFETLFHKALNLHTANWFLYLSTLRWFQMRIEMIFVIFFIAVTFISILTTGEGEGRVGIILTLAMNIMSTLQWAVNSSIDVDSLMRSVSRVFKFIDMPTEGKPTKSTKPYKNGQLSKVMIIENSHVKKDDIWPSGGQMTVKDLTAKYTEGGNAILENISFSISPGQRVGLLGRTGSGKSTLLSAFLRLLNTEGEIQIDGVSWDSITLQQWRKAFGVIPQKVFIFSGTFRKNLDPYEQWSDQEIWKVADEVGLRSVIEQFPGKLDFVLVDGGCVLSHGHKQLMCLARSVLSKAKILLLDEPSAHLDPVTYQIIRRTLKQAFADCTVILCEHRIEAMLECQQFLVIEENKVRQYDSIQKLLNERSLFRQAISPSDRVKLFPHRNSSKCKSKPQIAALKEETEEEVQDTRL
Assay: Activation of CFTR F508 deletion mutant in forskolin-stimulated and miglustat-corrected human […] cells assessed as increase in iodide efflux by gamma counting
measure.name: pEC50
Keep it numeric: pEC50 is minus log10 of the concentration in mol/L.

Documented pEC50 of `C=CCn1cnc2c1N=CN1C2=N[C@](C)(C(=O)O)[C@@H](O)[C@@]1(C)O` : 3.98

====

Target: UniProtKB P13569
Test: Activation of wild-type CFTR (unknown origin) expressed in forskolin-stimulated CHO cells assessed as increase in iodide efflux at 100 uM by gamma counting
Assay type: cell-based
Sequence (P13569 whole entry, looked up): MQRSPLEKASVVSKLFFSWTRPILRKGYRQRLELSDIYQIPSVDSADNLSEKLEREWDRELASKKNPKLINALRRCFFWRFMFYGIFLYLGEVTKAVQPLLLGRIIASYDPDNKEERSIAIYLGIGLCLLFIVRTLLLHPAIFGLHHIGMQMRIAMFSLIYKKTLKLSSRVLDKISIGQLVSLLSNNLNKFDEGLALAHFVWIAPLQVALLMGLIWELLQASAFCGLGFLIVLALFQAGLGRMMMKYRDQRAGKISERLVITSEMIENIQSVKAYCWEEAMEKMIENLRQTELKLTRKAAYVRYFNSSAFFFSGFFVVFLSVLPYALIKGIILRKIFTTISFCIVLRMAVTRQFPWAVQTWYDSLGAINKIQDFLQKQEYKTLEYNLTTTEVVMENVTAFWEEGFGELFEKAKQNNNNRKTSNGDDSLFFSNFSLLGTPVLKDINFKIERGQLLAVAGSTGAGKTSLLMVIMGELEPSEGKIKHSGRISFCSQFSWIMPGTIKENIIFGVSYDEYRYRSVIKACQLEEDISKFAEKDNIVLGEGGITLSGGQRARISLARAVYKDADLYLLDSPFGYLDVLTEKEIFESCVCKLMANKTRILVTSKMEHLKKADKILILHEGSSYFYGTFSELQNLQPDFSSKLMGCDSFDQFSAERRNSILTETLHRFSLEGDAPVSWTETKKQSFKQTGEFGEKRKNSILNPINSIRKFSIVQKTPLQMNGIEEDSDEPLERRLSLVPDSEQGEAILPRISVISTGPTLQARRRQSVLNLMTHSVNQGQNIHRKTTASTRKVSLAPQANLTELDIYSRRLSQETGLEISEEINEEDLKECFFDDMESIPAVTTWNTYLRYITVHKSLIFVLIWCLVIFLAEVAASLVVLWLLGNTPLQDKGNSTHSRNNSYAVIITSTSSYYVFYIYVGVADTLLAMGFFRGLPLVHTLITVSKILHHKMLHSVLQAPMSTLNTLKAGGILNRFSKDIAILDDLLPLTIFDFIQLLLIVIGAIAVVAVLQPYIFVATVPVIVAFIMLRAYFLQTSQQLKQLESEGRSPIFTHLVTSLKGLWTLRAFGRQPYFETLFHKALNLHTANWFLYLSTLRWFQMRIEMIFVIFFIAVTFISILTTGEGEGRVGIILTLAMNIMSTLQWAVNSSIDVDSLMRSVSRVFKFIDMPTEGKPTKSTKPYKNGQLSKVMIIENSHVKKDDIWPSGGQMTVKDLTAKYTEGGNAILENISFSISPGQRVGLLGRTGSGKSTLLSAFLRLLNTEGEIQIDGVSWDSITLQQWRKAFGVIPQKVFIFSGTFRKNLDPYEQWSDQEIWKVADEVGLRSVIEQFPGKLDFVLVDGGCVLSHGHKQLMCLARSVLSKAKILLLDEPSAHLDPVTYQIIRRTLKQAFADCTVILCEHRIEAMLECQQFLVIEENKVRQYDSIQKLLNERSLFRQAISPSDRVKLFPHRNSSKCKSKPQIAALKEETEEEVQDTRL
Activity calls are given as the source filed them. The rule behind the calls is not given here.
The categories you may choose from are active, inactive

Solved cases below.
{"smiles.code": "Cn1cnc2c1N=CN1C2=N[C@](C)(C(=O)O)[C@@H](O)[C@@]1(C)O", "category.label": "inactive"}
{"smiles.code": "C[C@]1(C(=O)O)N=C2c3ncn(CCCc4ccccc4)c3N=CN2[C@](C)(O)[C@@H]1O", "category.label": "inactive"}
{"smiles.code": "C[C@]1(C(=O)O)N=C2c3ncn(Cc4ccccc4)c3N=CN2[C@](C)(O)[C@@H]1O", "category.label": "inactive"}
{"smiles.code": "C#CCn1cnc2c1N=CN1C2=N[C@](C)(C(=O)O)[C@@H](O)[C@@]1(C)O", "category.label": "inactive"}
{"smiles.code": "CC(C)n1cnc2c1N=CN1C2=N[C@](C)(C(=O)O)[C@@H](O)[C@@]1(C)O", "category.label": "inactive"}

Look up the recorded call for `CCn1cnc2c1N=CN1C2=N[C@](C)(C(=O)O)[C@@H](O)[C@@]1(C)O` in this test.
inactive

Look up the recorded call for `C[C@]1(C(=O)O)N=C2c3ncn(CCCO)c3N=CN2[C@](C)(O)[C@@H]1O` in this test.
inactive

Look up the recorded call for `C=CCn1cnc2c1N=CN1C2=N[C@](C)(C(=O)O)[C@@H](O)[C@@]1(C)O` in this test.
active

Look up the recorded call for `CCCCn1cnc2c1N=CN1C2=N[C@](C)(C(=O)O)[C@@H](O)[C@@]1(C)O` in this test.
inactive

====

Target: Cystic fibrosis transmembrane conductance regulator (Homo sapiens, UniProt P13569)
Test: Activation of wild-type CFTR (unknown origin) expressed in forskolin-stimulated CHO cells assessed as increase in iodide efflux by gamma counting
Sequence (P13569 whole entry): as the sequence (P13569 whole entry, looked up) above
measure.name: pEC50
Keep it numeric: pEC50 is minus log10 of the concentration in mol/L.

Documented pEC50 of `C=CCn1cnc2c1N=CN1C2=N[C@](C)(C(=O)O)[C@H](O)[C@]1(C)O` : 5.68

Documented pEC50 of `C=CCn1cnc2c1N=CN1C2=N[C@](C)(C(=O)O)[C@@H](O)[C@@]1(C)O` : 5.12
